# Ratio (pH 7.4/6.0) of EC50 per record follows
Biological target: T1, cyno Nectin-4 on cells (cyno, UniProt A0A2K5WES1 32-510)
T1 construct: whole, on cells; also called HEK293 cells expressing cyno Nectin-4; cyno Nectin-4 cells
T1 sequence: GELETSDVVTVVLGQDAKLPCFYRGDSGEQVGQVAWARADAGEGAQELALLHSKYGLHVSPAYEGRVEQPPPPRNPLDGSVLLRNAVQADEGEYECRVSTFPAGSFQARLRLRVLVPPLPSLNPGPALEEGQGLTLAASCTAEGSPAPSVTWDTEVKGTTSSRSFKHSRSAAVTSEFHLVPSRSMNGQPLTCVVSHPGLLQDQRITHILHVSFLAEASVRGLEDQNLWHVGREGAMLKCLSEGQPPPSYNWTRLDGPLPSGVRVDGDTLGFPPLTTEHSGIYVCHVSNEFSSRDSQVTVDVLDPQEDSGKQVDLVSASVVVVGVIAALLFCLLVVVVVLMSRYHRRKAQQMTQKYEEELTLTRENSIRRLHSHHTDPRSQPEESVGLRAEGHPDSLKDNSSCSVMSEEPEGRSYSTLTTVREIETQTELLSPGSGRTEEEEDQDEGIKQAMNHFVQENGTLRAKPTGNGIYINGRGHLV
Test: FACS, HEK293 cells expressing cyno Nectin-4
Kindly provide the number alone.

Input: Data request, read-out Ratio (pH 7.4/6.0) of EC50, for BAP-143-00-01 (antibody, V domains shown, Used as a conjugate with a linker payload (CAB ADC)) VH: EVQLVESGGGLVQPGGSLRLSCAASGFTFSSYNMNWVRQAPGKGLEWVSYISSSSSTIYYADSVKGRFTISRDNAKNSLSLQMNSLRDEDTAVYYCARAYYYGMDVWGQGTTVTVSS VL: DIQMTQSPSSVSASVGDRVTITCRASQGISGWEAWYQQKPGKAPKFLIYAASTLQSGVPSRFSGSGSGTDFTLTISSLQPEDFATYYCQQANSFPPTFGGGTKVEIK
Output: 2

***
Input: Data request, read-out Ratio (pH 7.4/6.0) of EC50, for BAP-143-06-24-16 (antibody, V domains shown, Used as a conjugate with a linker payload (CAB ADC)) VH: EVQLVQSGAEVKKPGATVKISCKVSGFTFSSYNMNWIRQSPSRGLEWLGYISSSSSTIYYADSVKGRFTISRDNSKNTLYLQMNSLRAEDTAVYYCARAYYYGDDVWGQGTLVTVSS VL: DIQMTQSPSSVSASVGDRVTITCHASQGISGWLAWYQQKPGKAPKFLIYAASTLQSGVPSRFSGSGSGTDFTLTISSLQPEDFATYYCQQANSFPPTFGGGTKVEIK
Output: 1.4

Input: Same question, BAP-143-06-33-16 (antibody, V domains shown, Used as a conjugate with a linker payload (CAB ADC)) VH: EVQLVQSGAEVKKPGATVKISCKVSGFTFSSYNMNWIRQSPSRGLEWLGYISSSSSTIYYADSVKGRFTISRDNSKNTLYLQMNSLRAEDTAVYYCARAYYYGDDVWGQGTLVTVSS VL: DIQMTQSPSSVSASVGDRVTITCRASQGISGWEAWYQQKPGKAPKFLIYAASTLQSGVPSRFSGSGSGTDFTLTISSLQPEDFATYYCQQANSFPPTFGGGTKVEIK this time
Output: 1.5
